experiment: non-specific 3'UTR reporter inhibition in Clone20-Shn3RL – cell-based, Renilla luciferase, cherry-picked, counter-screen for Shn3 inhibitor project, dose response (AID 624133); assay type: functional
Calls of active or inactive are those of the source.
Measured property: AC50

1) C=CCSc1nc2ccccc2n1C(=O)/C=C/c1ccc(OC)c(OC)c1    12.5 µM (active)
2) O=C(Nc1ccc(N2CCOCC2)c(Cl)c1)c1ccc([N+](=O)[O-])o1    14.7 µM (active)
3) CS(=O)(=O)c1ccc(C(=O)OCC(=O)Nc2cccnc2Cl)cc1[N+](=O)[O-]    12.9 µM (active)
4) CN(C)S(=O)(=O)c1cccc(NC(=O)c2cccc(S(=O)(=O)N3CCc4ccccc43)c2)c1    11.7 µM (active)
5) Cn1nc(-c2ccc(OCC(=O)N3CCN(Cc4ccccc4)CC3)cc2)c2ccccc2c1=O    4.74 µM (active)
6) Cc1ccc(Nc2nc(NCc3ccco3)c3ccccc3n2)cc1.Cl    3.31 µM (active)

---

target: Replicative DNA helicase DnaB (Mycobacterium tuberculosis); assay: DnaB intein splicing inhibitors, dose response, biochemical, cell-free fluorescence (AID 449749); type: functional
Calls of active or inactive are those of the source.
Outcomes: active, inactive

1. O=C(CCN1C(=O)/C(=C/c2cccs2)SC1=S)Nc1ccc(C(=O)O)c(O)c1    active
2. COc1ccc(C2CC(c3cccs3)=NN2C(=O)CSC2=NCCS2)cc1 (stereo unspecified)    active
3. O=c1[nH]cc(O)c(=O)[nH]1    active
4. Cc1n[nH]c2c1C(c1c[nH]nc1-c1ccc(F)cc1)C(C#N)=C(N)O2 (stereo unspecified)    active
5. Oc1ccc(NC(=S)N=Nc2c(O)[nH]c3ccc(Br)cc23)cc1    active
6. CCOC(=O)Cc1c(O)oc2nnc(C)c-2c1C    inactive
7. Cc1cc(C)n(-c2ccc([N+](=O)[O-])cc2)n1    inactive
8. Cn1c(=O)c([N+](=O)[O-])c(Cl)c2ccccc21    active
9. CC(C)c1ccc(S(=O)(=O)/N=C2\C=C(NS(=O)(=O)c3ccccc3)C(=O)c3ccccc32)cc1    active
10. COc1ccc(CNC(=O)c2c(C)oc3c2C(=O)c2ccccc2C3=O)cc1    active
11. Cc1ccc(C2C(C#N)=C(N)Oc3[nH]nc(-c4cccs4)c32)s1 (stereo unspecified)    active

---

system: Streptococcus; test: GAS UMAA2166 growth inhibition – luminescence, BacTiterGlo, counter-screen for streptokinase expression inhibitor project, dose response (AID 1915); type: functional, organism-based;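 note: potency for reduction of bacterial viability or growth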
Activity calls are given as the source filed them.
Measured property: EC50

1) Cc1ccc(NS(=O)(=O)c2cc([N+](=O)[O-])ccc2NN=C(S)Nc2cccc(Cl)c2)c(C)c1    2.37 µM (active)
2) O=C(NNC(=O)c1cc(-c2ccc(Cl)cc2Cl)nc2ccccc12)Nc1ccccc1    8.55 µM (active)
3) O=c1/c(=C\c2cccc(O)c2)sc2nc(-c3ccccc3)c(-c3ccccc3)n12    51.1 µM (active)
4) CCCCCCC(=O)NN/C=C1/C(=O)NC(=S)N(CCCC)C1=O    49.3 µM (active)
5) CC(C)(O)c1ccccc1CC[C@@H](SCC1(CC(=O)O)CC1)c1cccc(/C=C/c2ccc3ccc(Cl)cc3n2)c1 [MONTELUKAST SODIUM]    7.96 µM (active)
6) COc1ccc(NC(=O)C(OC(=O)c2cnc(C)cn2)c2ccccc2)cc1Cl (configuration not stated)    > 150 µM (not active)
7) COc1ccc(C2CC(c3cccs3)=NN2C(=O)CSC2=NCCS2)cc1 (configuration not stated)    > 150 µM (not active)
8) CC(=O)c1c(C)[nH]c(C(=O)Nc2nc(-c3ccc(-c4ccccc4)cc3)cs2)c1C    16.7 µM (active)
9) COc1ccc(C(=O)/C=C/c2ccc(O)cc2)c(O)c1CC=C(C)C    3.01 µM (active)
10) O=S(=O)(NC(=NCc1ccccc1)c1ccccc1)c1ccc(Br)cc1    > 150 µM (not active)
11) CCSc1nsc(NC(=O)Nc2cccc(F)c2)n1    20.7 µM (active)
12) CN(C(=O)Cc1c(C(=O)O)n(C)c2ccccc12)c1ccc(F)cc1    > 150 µM (not active)
